Would you kindly list %Inh for each of these molecules?
test system: TBK1; settings: concentration: 1 μM,replicates: in singlicate; n = 1;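 further: KINOMEscan kinase panel screen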
State the answer as a number, implicitly in %.

## Input What value of measured %Inh is listed for `C=CC(=O)Nc1cc2c(Nc3ccc(F)c(Cl)c3)ncnc2cc1OCCCN1CCOCC1` ?
## Output 0

## Input Which %Inh is listed for `Cl.Oc1cc(-c2nc(-c3ccccc3)[nH]c2-c2ccncc2)ccc1Cl` ?
## Output 10

## Input Field request: %Inh | item: `COc1ccc(C[C@@H](CN)NC(=O)c2cc(Br)c(-c3ccnc4[nH]ccc34)s2)cc1.Cl.Cl`
## Output 1
